B1: glmS ribozyme (parent)
chain: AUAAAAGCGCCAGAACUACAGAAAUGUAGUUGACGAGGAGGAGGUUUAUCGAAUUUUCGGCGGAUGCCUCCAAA

# Variants of: B1
# Test: self-cleavage kobs at 40 uM GlcN6P; higher = faster cleavage; RNA array
# Measurement Parameters: with glucosamine-6-phosphate
Fewer inactive variants are shown than the library holds.
Endpoint Name: self-cleavage kobs at 40 uM GlcN6P

- A39C C68U: 2.73e-05 s⁻¹

**Query** Name the reported self-cleavage kobs at 40 uM GlcN6P value associated with the variant U49G C61U
**Result** < 1e-05 s⁻¹

**Query** Name the reported self-cleavage kobs at 40 uM GlcN6P value associated with the variant G59C C71U
**Result** < 1e-05 s⁻¹

**Query** Name the reported self-cleavage kobs at 40 uM GlcN6P value associated with the variant G35C U45C C67G C68A
**Result** 0.00152 s⁻¹

**Query** Name the reported self-cleavage kobs at 40 uM GlcN6P value associated with the variant G38U A42C A53U
**Result** < 1e-05 s⁻¹
